- system name: Human immunodeficiency virus type 1 protease (Human immunodeficiency virus 1, UniProt Q72874)
- procedure summary: Inhibition of wild type HIV1 protease using Arg-Glu (EDANS)-Ser-Gln-Asn-Tyr-Pro-Ile-Val-Gln-Lys(DABCYL)-Arg as substrate preincubated for 20 to 30 mins followed by substrate addition and measured for 10 mins by FRET assay
Give measured pKi for each item. Keep answers brief.
Scale note: pKi = -log10(concentration in M).

Record summary for CC(C)CN(C[C@@H](O)[C@H](Cc1ccccc1)NC(=O)C1CCNCC1)S(=O)(=O)c1ccc(N)cc1 : reported pKi = 8.26

According to the records, this compound CC(C)CN(C[C@@H](O)[C@H](Cc1ccccc1)NC(=O)C1CCNCC1)S(=O)(=O)c1ccc(C(F)(F)F)cc1 displays pKi of 8.23

The recorded pKi for entry COc1ccc(S(=O)(=O)N(CC(C)C)C[C@@H](O)[C@H](Cc2ccccc2)NC(=O)[C@H]2CCCNC2)cc1 equals 8.00

Input CC(C)CN(C[C@@H](O)[C@H](Cc1ccccc1)NC(=O)[C@H]1CCCNC1)S(=O)(=O)c1ccc(C(F)(F)F)cc1 . Output pKi: 7.36

Item: CC(C)CN(C[C@@H](O)[C@H](Cc1ccccc1)NC(=O)[C@@H]1CCCN(C)C1)S(=O)(=O)c1ccc(N)cc1 | pKi: 9.52

The reported value for CC(C)CN(C[C@@H](O)[C@H](Cc1ccccc1)NC(=O)OC[C@H]1CCCNC1)S(=O)(=O)c1ccc(C(F)(F)F)cc1 in terms of pKi is 8.58

GET /value?item= COc1ccc(S(=O)(=O)N(CC(C)C)C[C@@H](O)[C@H](Cc2ccccc2)NC(=O)[C@@H]2CCCN(C)C2)cc1 &field=pKi returns 10.40

CC(C)CN(C[C@@H](O)[C@H](Cc1ccccc1)NC(=O)[C@@H]1CCCN(C)C1)S(=O)(=O)c1ccc(C(F)(F)F)cc1 has a reported pKi of 9.72

The value of pKi measured for the compound CC(C)CN(C[C@@H](O)[C@H](Cc1ccccc1)NC(=O)[C@@H]1CCCCN1)S(=O)(=O)c1ccc(C(F)(F)F)cc1 turned out to be 8.34

# pKi of CC(C)CN(C[C@@H](O)[C@H](Cc1ccccc1)NC(=O)[C@@H]1CCCNC1)S(=O)(=O)c1ccc(N)cc1 = 9.57

Measured pKi of CC(C)CN(C[C@@H](O)[C@H](Cc1ccccc1)NC(=O)[C@@H]1CCCCN1)S(=O)(=O)c1ccc(N)cc1 : 8.69

Recorded result, CC(C)CN(C[C@@H](O)[C@H](Cc1ccccc1)NC(=O)[C@@H]1CCCNC1)S(=O)(=O)c1ccc(C(F)(F)F)cc1 , pKi: 10.00

Kindly note the recorded pKi for COc1ccc(S(=O)(=O)N(CC(C)C)C[C@@H](O)[C@H](Cc2ccccc2)NC(=O)OC[C@H]2CCCNC2)cc1 , which is 9.52

The recorded pKi for COc1ccc(S(=O)(=O)N(CC(C)C)C[C@@H](O)[C@H](Cc2ccccc2)NC(=O)OC[C@@H]2CCCNC2)cc1 is 10.00

# compound CC(C)CN(C[C@@H](O)[C@H](Cc1ccccc1)NC(=O)OC[C@@H]1CCCNC1)S(=O)(=O)c1ccc(C(F)(F)F)cc1 ; its pKi = 8.76

The reported pKi of the compound COc1ccc(S(=O)(=O)N(CC(C)C)C[C@@H](O)[C@H](Cc2ccccc2)NC(=O)[C@@H]2CCCNC2)cc1 was 10.54

Record COc1ccc(S(=O)(=O)N(CC(C)C)C[C@@H](O)[C@H](Cc2ccccc2)NC(=O)C2CCNCC2)cc1 , field pKi: 9.26

// sample COc1ccc(S(=O)(=O)N(CC(C)C)C[C@@H](O)[C@H](Cc2ccccc2)NC(=O)[C@@H]2CCCCN2)cc1 , its pKi was 9.48

# compound CC(C)CN(C[C@@H](O)[C@H](Cc1ccccc1)NC(=O)OC[C@H]1CCCNC1)S(=O)(=O)c1ccc(N)cc1 ; its pKi = 9.00

get_value(item= CC(C)CN(C[C@@H](O)[C@H](Cc1ccccc1)NC(=O)OC[C@@H]1CCCNC1)S(=O)(=O)c1ccc(N)cc1 , readout=pKi) returns 9.55

Data point: CC(C)CN(C[C@@H](O)[C@H](Cc1ccccc1)NC(=O)[C@H]1CCCNC1)S(=O)(=O)c1ccc(N)cc1 ; pKi = 7.39
